test system: 885512-296-R-J2-PDC complex spheroid growth, % test/control; assay: Anticancer human tumor 885512-296-R-J2-PDC patient-derived breast carcinoma cell line growth inhibition [Asc]; details: second compound 3.16 µM; first compound 3.16 µM; stronger effect = lower value
property-measured: viability, T/C (%)
Lab book: enter the figure in %, no units written.

molecule	test-system	property-measured	observed-value
C=CC(=O)N1CCN(c2nc(=O)n(-c3c(C)ccnc3C(C)C)c3nc(-c4c(O)cccc4F)c(F)cc23)C(C)C1 (centres undefined) + Cc1c(S(C)(=O)=O)c(-c2cc(F)cc(N3CCN(c4ccc(NS(=O)(=O)c5ccc(NC(CCN6CCC(C(=O)OCCCP(=O)(O)O)CC6)CSc6ccccc6)c(S(=O)(=O)C(F)(F)F)c5)cc4)CC3)c2)c(-c2ccc(Cl)cc2)n1C(C)C	885512-296-R-J2-PDC complex spheroid growth, % test/control	viability, T/C	90.2

Any idea what its viability, T/C is? The molecule is C=C(F)C(=O)N1CCN(c2nc(OCC3CCCN3C)nc3c2CCN(c2cccc4cccc(Cl)c24)C3)CC1CC#N (centres undefined) + Cc1c(S(C)(=O)=O)c(-c2cc(F)cc(N3CCN(c4ccc(NS(=O)(=O)c5ccc(NC(CCN6CCC(C(=O)OCCCP(=O)(O)O)CC6)CSc6ccccc6)c(S(=O)(=O)C(F)(F)F)c5)cc4)CC3)c2)c(-c2ccc(Cl)cc2)n1C(C)C
20.3

Any idea what its viability, T/C is? The molecule is O=C(c1cc(Cc2n[nH]c(=O)c3ccccc23)ccc1F)N1CCN(C(=O)C2CC2)CC1 + Cc1c(S(C)(=O)=O)c(-c2cc(F)cc(N3CCN(c4ccc(NS(=O)(=O)c5ccc(NC(CCN6CCC(C(=O)OCCCP(=O)(O)O)CC6)CSc6ccccc6)c(S(=O)(=O)C(F)(F)F)c5)cc4)CC3)c2)c(-c2ccc(Cl)cc2)n1C(C)C
55.7

Any idea what its viability, T/C is? The molecule is C#Cc1c(F)ccc2cc(O)cc(-c3ncc4c(N5CC6CCC(C5)N6)nc(OCC56CCCN5CC(F)C6)nc4c3F)c12 (centres undefined) + Cc1c(S(C)(=O)=O)c(-c2cc(F)cc(N3CCN(c4ccc(NS(=O)(=O)c5ccc(NC(CCN6CCC(C(=O)OCCCP(=O)(O)O)CC6)CSc6ccccc6)c(S(=O)(=O)C(F)(F)F)c5)cc4)CC3)c2)c(-c2ccc(Cl)cc2)n1C(C)C
79.8

###

test system: 885512-296-R-J2-PDC complex spheroid growth, % test/control; test: Anticancer human tumor 885512-296-R-J2-PDC cell line growth inhibition [Asc]; conditions: second compound 0.1 µM; first compound 0.0316 µM; stronger effect = lower value;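 further: spheroids exposed to compounds for seven days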;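 on viability, T/C: 100% = DMSO vehicle control wells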
property-measured: viability, T/C

Some molecules with known viability, T/C results, for comparison:
molecule	test-system	viability, T/C
C=C(F)C(=O)N1CCN(c2nc(OCC3CCCN3C)nc3c2CCN(c2cccc4cccc(Cl)c24)C3)CC1CC#N (stereo not drawn) + Cc1c(S(C)(=O)=O)c(-c2cc(F)cc(N3CCN(c4ccc(NS(=O)(=O)c5ccc(NC(CCN6CCC(C(=O)OCCCP(=O)(O)O)CC6)CSc6ccccc6)c(S(=O)(=O)C(F)(F)F)c5)cc4)CC3)c2)c(-c2ccc(Cl)cc2)n1C(C)C	885512-296-R-J2-PDC complex spheroid growth, % test/control	85.7%
Cn1ncnc1[C@H]1c2n[nH]c(=O)c3cc(F)cc(c23)N[C@@H]1c1ccc(F)cc1 + Cc1c(S(C)(=O)=O)c(-c2cc(F)cc(N3CCN(c4ccc(NS(=O)(=O)c5ccc(NC(CCN6CCC(C(=O)OCCCP(=O)(O)O)CC6)CSc6ccccc6)c(S(=O)(=O)C(F)(F)F)c5)cc4)CC3)c2)c(-c2ccc(Cl)cc2)n1C(C)C	885512-296-R-J2-PDC complex spheroid growth, % test/control	47.5%

Consider the additional molecule presented here.
Any idea what its viability, T/C is? The molecule is C=CC(=O)N1CCN(c2nc(=O)n(-c3c(C)ccnc3C(C)C)c3nc(-c4c(O)cccc4F)c(F)cc23)C(C)C1 (stereo not drawn) + Cc1c(S(C)(=O)=O)c(-c2cc(F)cc(N3CCN(c4ccc(NS(=O)(=O)c5ccc(NC(CCN6CCC(C(=O)OCCCP(=O)(O)O)CC6)CSc6ccccc6)c(S(=O)(=O)C(F)(F)F)c5)cc4)CC3)c2)c(-c2ccc(Cl)cc2)n1C(C)C
85.3%

###

test system: 885512-296-R-J2-PDC complex spheroid growth, % test/control; experiment: Anticancer human tumor 885512-296-R-J2-PDC cell line growth inhibition [Asc]; conditions: second compound 0.0316 µM; first compound 3.16 µM; stronger effect = lower value;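 further: spheroids exposed to compounds for seven days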;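 on viability, T/C: 100% = DMSO vehicle control wells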
property-measured: viability, T/C (%)
Lab book: enter the figure in %, no units written.

Any idea what its viability, T/C is? The molecule is C=CC(=O)N1CCN(c2nc(=O)n(-c3c(C)ccnc3C(C)C)c3nc(-c4c(O)cccc4F)c(F)cc23)C(C)C1 (centres undefined) + CNC(C)C(=O)NC1CN(S(=O)(=O)c2cccc(S(=O)(=O)N3CCC4CCC(C(=O)NC(c5ccccc5)c5ccccc5)N4C(=O)C(NC(=O)C(C)NC)C3)c2)CCC2CCC(C(=O)NC(c3ccccc3)c3ccccc3)N2C1=O
92.6

Any idea what its viability, T/C is? The molecule is O=C(c1cc(Cc2n[nH]c(=O)c3ccccc23)ccc1F)N1CCN(C(=O)C2CC2)CC1 + CNC(C)C(=O)NC1CN(S(=O)(=O)c2cccc(S(=O)(=O)N3CCC4CCC(C(=O)NC(c5ccccc5)c5ccccc5)N4C(=O)C(NC(=O)C(C)NC)C3)c2)CCC2CCC(C(=O)NC(c3ccccc3)c3ccccc3)N2C1=O
48.2

Any idea what its viability, T/C is? The molecule is C#Cc1c(F)ccc2cc(O)cc(-c3ncc4c(N5CC6CCC(C5)N6)nc(OCC56CCCN5CC(F)C6)nc4c3F)c12 (centres undefined) + CNC(C)C(=O)NC1CN(S(=O)(=O)c2cccc(S(=O)(=O)N3CCC4CCC(C(=O)NC(c5ccccc5)c5ccccc5)N4C(=O)C(NC(=O)C(C)NC)C3)c2)CCC2CCC(C(=O)NC(c3ccccc3)c3ccccc3)N2C1=O
108

Any idea what its viability, T/C is? The molecule is C=C(F)C(=O)N1CCN(c2nc(OCC3CCCN3C)nc3c2CCN(c2cccc4cccc(Cl)c24)C3)CC1CC#N (centres undefined) + CNC(C)C(=O)NC1CN(S(=O)(=O)c2cccc(S(=O)(=O)N3CCC4CCC(C(=O)NC(c5ccccc5)c5ccccc5)N4C(=O)C(NC(=O)C(C)NC)C3)c2)CCC2CCC(C(=O)NC(c3ccccc3)c3ccccc3)N2C1=O
30.7

###

test system: 885512-296-R-J2-PDC complex spheroid growth, % test/control; test: Anticancer human tumor 885512-296-R-J2-PDC cell line growth inhibition [Asc]; settings: curve of first compound; second compound 3.16 µM;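 further: spheroids exposed to compounds for seven days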
property-measured: pIC50
Units for pIC50: none; it is -log10 of a concentration expressed in mol/L.

Some molecules with known pIC50 results, for comparison:
molecule	pIC50
C=C(F)C(=O)N1CCN(c2nc(OCC3CCCN3C)nc3c2CCN(c2cccc4cccc(Cl)c24)C3)CC1CC#N (stereo not given) + Cc1c(S(C)(=O)=O)c(-c2cc(F)cc(N3CCN(c4ccc(NS(=O)(=O)c5ccc(NC(CCN6CCC(C(=O)OCCCP(=O)(O)O)CC6)CSc6ccccc6)c(S(=O)(=O)C(F)(F)F)c5)cc4)CC3)c2)c(-c2ccc(Cl)cc2)n1C(C)C	5.74
COc1c(OCCCN2CCOCC2)ccc2c3n(c(=NC(=O)c4cnc(N)nc4)nc12)CCN3 + Cc1c(S(C)(=O)=O)c(-c2cc(F)cc(N3CCN(c4ccc(NS(=O)(=O)c5ccc(NC(CCN6CCC(C(=O)OCCCP(=O)(O)O)CC6)CSc6ccccc6)c(S(=O)(=O)C(F)(F)F)c5)cc4)CC3)c2)c(-c2ccc(Cl)cc2)n1C(C)C	6.65
O=C(c1ccc(F)c(F)c1Nc1ccc(I)cc1F)N1CC(O)([C@@H]2CCCCN2)C1 + Cc1c(S(C)(=O)=O)c(-c2cc(F)cc(N3CCN(c4ccc(NS(=O)(=O)c5ccc(NC(CCN6CCC(C(=O)OCCCP(=O)(O)O)CC6)CSc6ccccc6)c(S(=O)(=O)C(F)(F)F)c5)cc4)CC3)c2)c(-c2ccc(Cl)cc2)n1C(C)C	7.11
O=C(c1cc(Cc2n[nH]c(=O)c3ccccc23)ccc1F)N1CCN(C(=O)C2CC2)CC1 + Cc1c(S(C)(=O)=O)c(-c2cc(F)cc(N3CCN(c4ccc(NS(=O)(=O)c5ccc(NC(CCN6CCC(C(=O)OCCCP(=O)(O)O)CC6)CSc6ccccc6)c(S(=O)(=O)C(F)(F)F)c5)cc4)CC3)c2)c(-c2ccc(Cl)cc2)n1C(C)C	5.44
Cc1nc(N2CCC3(CC2)COC(C)C3N)c(CO)nc1Sc1ccnc(N)c1Cl (stereo not given) + Cc1c(S(C)(=O)=O)c(-c2cc(F)cc(N3CCN(c4ccc(NS(=O)(=O)c5ccc(NC(CCN6CCC(C(=O)OCCCP(=O)(O)O)CC6)CSc6ccccc6)c(S(=O)(=O)C(F)(F)F)c5)cc4)CC3)c2)c(-c2ccc(Cl)cc2)n1C(C)C	6.78

Consider the additional molecule presented here.
Any idea what its pIC50 is? The molecule is NC(=O)C(=Cn1cnc(-c2cc(C(F)(F)F)cc(C(F)(F)F)c2)n1)c1cncnc1 + Cc1c(S(C)(=O)=O)c(-c2cc(F)cc(N3CCN(c4ccc(NS(=O)(=O)c5ccc(NC(CCN6CCC(C(=O)OCCCP(=O)(O)O)CC6)CSc6ccccc6)c(S(=O)(=O)C(F)(F)F)c5)cc4)CC3)c2)c(-c2ccc(Cl)cc2)n1C(C)C
7.38
